- Tested on: Enterovirus A71
- assay_summary: Antiviral activity against Human enterovirus 71 infected in monkey African green Vero cells by MTS-based CPE reduction assay
- Type: functional, organism-based
- assay_context: Enterovirus A, Vero; read-out: EC50
observation_type: pEC50
Worth noting: pEC50 values are minus log10 of concentrations stated in mol/L.

[Q] Lab note: need pEC50 with Enterovirus A71 for entry Cc1ccc(C(=O)NNc2c(Cl)cccc2Cl)cc1 , please look it up.
[A] 5.89

[Q] Lab note: need pEC50 with Enterovirus A71 for entry CCc1ccc(C(=O)NNc2c(Cl)cccc2Cl)cc1 , please look it up.
[A] 6.03

[Q] Lab note: need pEC50 with Enterovirus A71 for entry CCCc1ccc(C(=O)NNc2c(C)cccc2Cl)cc1 , please look it up.
[A] 6.04

[Q] Lab note: need pEC50 with Enterovirus A71 for entry CCCc1ccc(C(=O)NNc2c(F)cccc2F)cc1 , please look it up.
[A] 4.56

[Q] Lab note: need pEC50 with Enterovirus A71 for entry COc1cccc(OC)c1NNC(=O)c1ccc(C(C)(C)C)cc1 , please look it up.
[A] 4.98

[Q] Lab note: need pEC50 with Enterovirus A71 for entry CSc1ccc(C(=O)NNc2c(C)cccc2Cl)cc1 , please look it up.
[A] 5.21

[Q] Lab note: need pEC50 with Enterovirus A71 for entry CCc1ccc(C(=O)NNc2c(Br)cccc2Br)cc1 , please look it up.
[A] 6.03

---

Kindly supply the reported CC50 values for the records listed here.
- assay_summary: Cytotoxicity against african green monkey Vero cells assessed as reduction in cell viability after 24 to 36 hrs by MTS-based CPE reduction assay
- assay_context: chlorocebus sabaeus

[Q] // lookup CC50 for CCOc1ccc(C(=O)NNc2c(C)cccc2Cl)cc1
[A] > 262 µM

[Q] // lookup CC50 for CN(C)c1ccc(C(=O)NNc2c(Br)cccc2Br)cc1
[A] > 194 µM

[Q] // lookup CC50 for Cc1ccc(C(=O)NNc2c(C)cccc2Cl)cc1
[A] > 291 µM

[Q] // lookup CC50 for Cc1ccc(C(=O)NNc2c(C)cccc2C)cc1
[A] > 315 µM

[Q] // lookup CC50 for CCCc1ccc(C(=O)NNc2c(C)cccc2Cl)cc1
[A] 80.2 µM

[Q] // lookup CC50 for CCc1ccc(C(=O)NNc2c(C)cccc2C)cc1
[A] 135 µM

[Q] // lookup CC50 for CCc1ccc(C(=O)NNc2c(Br)cccc2Br)cc1
[A] > 201 µM

[Q] // lookup CC50 for COc1cccc(OC)c1NNC(=O)c1ccc(C(C)(C)C)cc1
[A] > 244 µM

[Q] // lookup CC50 for Cc1cc(CCCCCCCOc2ccc(C3=NCCO3)cc2)on1
[A] 148 µM

[Q] // lookup CC50 for O=C(NNc1c(Br)cccc1Br)c1ccccc1
[A] > 216 µM

[Q] // lookup CC50 for COc1ccc(C(=O)NNc2c(Cl)cccc2Cl)cc1
[A] > 257 µM

[Q] // lookup CC50 for CC(C)S(=O)(=O)n1c(N)nc2ccc(/C(=N/O)c3ccccc3)cc21
[A] > 223 µM

---

- Tested on: Enterovirus A71
- assay_summary: Antiviral activity against Human enterovirus 71 infected in monkey African green Vero cells by MTS-based CPE reduction assay
- Type: functional, organism-based
- assay_context: Enterovirus A, Vero; read-out: EC50
EC50 strictly under 0.7 µM means condition met; at 0.7 µM or over means condition not met.

[Q] Hi there! Is EC50 for O=C(NNc1c(Cl)cccc1Cl)c1ccc(Cl)cc1 below 0.7 µM, do you know?
[A] condition not met

[Q] Hi there! Is EC50 for CCCc1ccc(C(=O)NNc2c(Cl)cccc2Cl)cc1 below 0.7 µM, do you know?
[A] condition met

[Q] Hi there! Is EC50 for CCc1ccc(C(=O)NNc2c(C)cccc2C)cc1 below 0.7 µM, do you know?
[A] condition not met

[Q] Hi there! Is EC50 for Cc1ccc(C(=O)NNc2c(C)cccc2C)cc1 below 0.7 µM, do you know?
[A] condition not met

[Q] Hi there! Is EC50 for CCc1ccc(C(=O)NNc2c(C)cccc2Cl)cc1 below 0.7 µM, do you know?
[A] condition not met

[Q] Hi there! Is EC50 for CC(C)(C)c1ccc(C(=O)NNc2c(Cl)cccc2Cl)cc1 below 0.7 µM, do you know?
[A] condition met

[Q] Hi there! Is EC50 for Cc1cccc(C)c1NNC(=O)c1ccc(C(C)(C)C)cc1 below 0.7 µM, do you know?
[A] condition met

[Q] Hi there! Is EC50 for Cc1cccc(C)c1NNC(=O)c1ccc(N(C)C)cc1 below 0.7 µM, do you know?
[A] condition met

[Q] Hi there! Is EC50 for CC(C)(C)c1ccc(C(=O)NNc2c(F)cccc2F)cc1 below 0.7 µM, do you know?
[A] condition not met

[Q] Hi there! Is EC50 for Cc1ccc(C(=O)NNc2c(Br)cccc2Br)cc1 below 0.7 µM, do you know?
[A] condition not met

[Q] Hi there! Is EC50 for COc1ccc(C(=O)NNc2c(C)cccc2Cl)cc1 below 0.7 µM, do you know?
[A] condition not met

---

- System: Coxsackievirus B3
- assay_summary: Antiviral activity against Human coxsackievirus B3 infected in african green monkey Vero cells after 24 to 36 hrs by MTS-based CPE reduction assay
- Type: functional, organism-based
- assay_context: Enterovirus B
EC50 strictly under 900 nM means rule met; at 900 nM or over means rule not met.

[Q] Hi there! Is EC50 for CC(C)S(=O)(=O)n1c(N)nc2ccc(/C(=N/O)c3ccccc3)cc21 [ENVIROXIME] below 900 nM, do you know?
[A] rule not met

[Q] Hi there! Is EC50 for CN(C)c1ccc(C(=O)NNc2c(Br)cccc2Br)cc1 below 900 nM, do you know?
[A] rule met

[Q] Hi there! Is EC50 for Cc1cccc(C)c1NNC(=O)c1ccc(C(C)(C)C)cc1 below 900 nM, do you know?
[A] rule met

[Q] Hi there! Is EC50 for CN(C)c1ccc(C(=O)NNc2c(Cl)cccc2Cl)cc1 below 900 nM, do you know?
[A] rule not met

[Q] Hi there! Is EC50 for CC(C)(C)c1ccc(C(=O)NNc2c(Br)cccc2Br)cc1 below 900 nM, do you know?
[A] rule met

---

- Test system: Enterovirus A71
- assay_summary: Antiviral activity against Human enterovirus 71 infected in monkey African green Vero cells by MTS-based CPE reduction assay
- Type: functional, organism-based
- assay_context: Enterovirus A, Vero; read-out: EC50
pEC50: −log10 of the molar value.
Please enter y where pEC50 is greater than or equal to 6, and n where it is lower.

[Q] Is pEC50 at least 6? Consider COc1ccccc1C(=O)NNc1c(Cl)cccc1Cl
[A] n

[Q] Is pEC50 at least 6? Consider CC(C)S(=O)(=O)n1c(N)nc2ccc(/C(=N/O)c3ccccc3)cc21 [ENVIROXIME]
[A] y

[Q] Is pEC50 at least 6? Consider CCOc1ccc(C(=O)NNc2c(C)cccc2Cl)cc1
[A] y

[Q] Is pEC50 at least 6? Consider Cc1cc(CCCCCCCOc2ccc(C3=NCCO3)cc2)on1 [DISOXARIL]
[A] n

[Q] Is pEC50 at least 6? Consider CN(C)c1ccc(C(=O)NNc2c(F)cccc2F)cc1
[A] n

[Q] Is pEC50 at least 6? Consider CN(C)c1ccc(C(=O)NNc2c(Cl)cccc2Cl)cc1
[A] y

[Q] Is pEC50 at least 6? Consider COc1ccc(C(=O)NNc2c(F)cccc2F)cc1
[A] n

[Q] Is pEC50 at least 6? Consider CN(C)c1ccc(C(=O)NNc2c(Br)cccc2Br)cc1
[A] y

[Q] Is pEC50 at least 6? Consider CCOc1ccc(C(=O)NNc2c(Cl)cccc2Cl)cc1
[A] y

[Q] Is pEC50 at least 6? Consider CCOc1ccc(C(=O)NNc2c(F)cccc2F)cc1
[A] n

---

- assay_summary: Selectivity index, ratio of CC50 for african green monkey Vero cells to EC50 for Enterovirus 71
- Type: toxicity, cell-based
- assay_context: read-out: Ratio CC50/EC50
observation_type: selectivity ratio

[Q] // lookup selectivity ratio for CCOc1ccc(C(=O)NNc2c(C)cccc2Cl)cc1
[A] > 673

[Q] // lookup selectivity ratio for CCc1ccc(C(=O)NNc2c(C)cccc2Cl)cc1
[A] 12.8

[Q] // lookup selectivity ratio for COc1ccc(C(=O)NNc2c(F)cccc2F)cc1
[A] > 3.9

[Q] // lookup selectivity ratio for Cc1cccc(C)c1NNC(=O)c1ccc(N(C)C)cc1
[A] > 974

[Q] // lookup selectivity ratio for COc1ccccc1C(=O)NNc1c(Br)cccc1Br
[A] 2

[Q] // lookup selectivity ratio for CCCc1ccc(C(=O)NNc2c(Br)cccc2Br)cc1
[A] > 54.8

[Q] // lookup selectivity ratio for CCCc1ccc(C(=O)NNc2c(F)cccc2F)cc1
[A] > 10.1

[Q] // lookup selectivity ratio for CN(C)c1ccc(C(=O)NNc2c(Cl)cccc2Cl)cc1
[A] > 12300

[Q] // lookup selectivity ratio for COc1ccc(C(=O)NNc2c(C)cccc2Cl)cc1
[A] > 47.9

[Q] // lookup selectivity ratio for COc1ccc(C(=O)NNc2c(Cl)cccc2Cl)cc1
[A] > 378

[Q] // lookup selectivity ratio for CCc1ccc(C(=O)NNc2c(Br)cccc2Br)cc1
[A] > 216

[Q] // lookup selectivity ratio for CN(C)c1ccc(C(=O)NNc2c(F)cccc2F)cc1
[A] > 15.3

[Q] // lookup selectivity ratio for O=C(NNc1c(Br)cccc1Br)c1ccccc1
[A] > 251
